# study-system: Substance-P receptor (Homo sapiens)
# Sequence (P25103 whole entry): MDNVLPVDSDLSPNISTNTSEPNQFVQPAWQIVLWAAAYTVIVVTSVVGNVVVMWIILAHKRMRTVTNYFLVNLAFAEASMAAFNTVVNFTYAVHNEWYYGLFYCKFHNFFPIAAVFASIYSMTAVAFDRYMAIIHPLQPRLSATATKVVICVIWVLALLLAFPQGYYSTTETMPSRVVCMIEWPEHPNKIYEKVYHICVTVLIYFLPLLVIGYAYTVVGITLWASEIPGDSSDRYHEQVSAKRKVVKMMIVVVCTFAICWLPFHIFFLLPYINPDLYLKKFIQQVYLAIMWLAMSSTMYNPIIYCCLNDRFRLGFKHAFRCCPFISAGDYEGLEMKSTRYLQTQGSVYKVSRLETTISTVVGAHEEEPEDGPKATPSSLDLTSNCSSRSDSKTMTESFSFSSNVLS
# test-details: Inhibition of binding of [125I]SP to the CHO cell line expressing human Tachykinin receptor 1
readout-type: IC50

>>> endpoint_value("COc1cc(COC2C3CCN(CC3)C2C(c2ccccc2)c2ccccc2)cc(OC)c1 (stereo in doubt; 76)")
"0.0083 µM"
>>> endpoint_value("Cc1cc(C)cc(COC2C3CCN(CC3)C2C(c2ccccc2)c2ccccc2)c1 (stereo in doubt; 73)")
"0.00026 µM"
>>> endpoint_value("Cc1cc(C)cc(COC2C3CCN(CC3)C2C(Cc2ccccc2)c2ccccc2)c1 (stereo in doubt; 90)")
"0.353 µM"
>>> endpoint_value("Clc1cccc(COC2C3CCN(CC3)C2C(c2ccccc2)c2ccccc2)c1 (centres undefined)")
"0.062 µM"
